Study Target: T1, TNFR1 (Homo sapiens, UniProt P19438)
T1 chain: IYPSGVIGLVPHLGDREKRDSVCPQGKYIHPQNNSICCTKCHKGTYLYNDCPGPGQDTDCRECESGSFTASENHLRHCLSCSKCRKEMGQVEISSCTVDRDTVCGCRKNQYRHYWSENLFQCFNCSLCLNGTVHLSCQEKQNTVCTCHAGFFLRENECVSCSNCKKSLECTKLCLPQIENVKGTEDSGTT
Protocol: yeast display SC50
Endpoint: apparent Kd (screen) (nM)

Binder	apparent Kd (screen) [nM]
A19E (designed binder) MTLQELLREEALRRAEAEEFRYALELLAEKFPEQKEYLLDLAEEIESQIRSLSGVDVEDVRKFLDKEWAWVKELLAEHPAELAEVEAARAARLAELRAEVEAKVAA	0.956

1. D65V (designed binder) MTLQELLREEALRRAEAEAFRYALELLAEKFPEQKEYLLDLAEEIESQIRSLSGVDVEDVRKFLVKEWAWVKELLAEHPAELAEVEAARAARLAELRAEVEAKVAA
2. E95K (designed binder) MTLQELLREEALRRAEAEAFRYALELLAEKFPEQKEYLLDLAEEIESQIRSLSGVDVEDVRKFLDKEWAWVKELLAEHPAELAEVEAARAARLAKLRAEVEAKVAA
Ask: Of 1 and 2 , which shows the smaller apparent Kd (screen) value? Give the label of your selection.
Reply: 2
(2: 0.539 nM, 1: 0.956 nM)
